tested on: ARROWHEAD; test: Test C rice paddy; assay type: in vivo, Sagittaria spp.; details: Sagittaria, 504 h; 1000 G/HA, 21 days; read-out: plant response
endpoint.label: pest or weed control at 1000 g/ha (%)
One number for each entry, in %.

• C=C(c1cccc(F)c1)C(O)(Cn1cncn1)c1ccc(F)cc1F (centres unmarked) = 35

For every item below, please supply its pest or weed control at 1000 g/ha.
1. C=C(c1ccccc1)C(O)(Cn1cncn1)c1ccc(Cl)cc1Cl (centres unmarked)
2. C=C(c1ccc(F)cc1)C(O)(Cn1ncnc1S)c1ccc(F)cc1F (centres unmarked)

1: 50; 2: 30

For every item below, please supply its pest or weed control at 1000 g/ha.
1. C=C(c1ccccc1Cl)C(O)(Cn1cncn1)c1ccc(Cl)cc1Cl (centres unmarked)
2. C=C(c1ccc(Cl)cc1Cl)C(O)(Cn1cncn1)c1ccccc1F (centres unmarked)
3. C=C(c1ccc(Cl)cc1)C(O)(Cn1cncn1)c1ccccc1F (centres unmarked)
4. C=C(c1ccc(F)cc1)C(O)(Cn1ncnc1I)c1ccc(F)cc1F (centres unmarked)

0
70
0
0

Measured pest or weed control at 1000 g/ha, C=C(c1ccccc1Cl)C(O)(Cn1cncn1)c1ccc(F)cc1F (centres unmarked) : 95
